Some compounds, each annotated with its measured Z-AUC.
# protocol.details: qHTS drug screen for cell cycle checkpoint inhibitors in PARPi-resistant BRCA-mutant ovarian cancer cell lines. (AID 1963452)
# experimental.parameters: PEO1/OlaR viability, CellTiter-Glo luminescence, 96 h; measured here: PEO4 Z-AUC; stronger effect = lower value
test.readout: Z-AUC

• CC[C@H](C)[C@@H]([C@@H](CC(=O)N1CCC[C@H]1[C@H](OC)[C@@H](C)C(=O)N[C@@H](Cc1ccccc1)c1nccs1)OC)N(C)C(=O)[C@@H](NC(=O)[C@H](C(C)C)N(C)C)C(C)C = -2.96
• C[C@]1(C(=O)N(CCCC(=O)O)Cc2cccc(Cl)c2)CCN1C(=O)c1csc2ccccc12 = 0.835
• C[C@@H](OC[C@@]1(c2ccccc2)CC[C@]2(CCC(=O)N2)CN1)c1cc(C(F)(F)F)cc(C(F)(F)F)c1 = -0.395
• C[C@H](NC(=O)c1c(N)nn2cccnc12)c1cc2cccc(C#Cc3cnn(C)c3)c2c(=O)n1-c1ccccc1 = 0.799
• CCC(=O)NC[C@H](Cc1ccc(OCCc2nc(-c3ccccc3)oc2C)cc1)N/C(C)=C\C(=O)c1ccc(C(F)(F)F)cc1 = 0.423

---

# protocol.details: qHTS Assay for Lipid Storage Modulators (AID 1519)
# experimental.parameters: Drosophila S3 cells, BODIPY lipid droplet/cell ratio, laser cytometry; measured here: cell count channel max response; cells loaded with oleic acid
Inconclusive results are not listed.
test.readout: max response (%)

• C[N+]1(C)CC[C@@H](OC(=O)[C@@](O)(c2ccccc2)C2CCCC2)C1 = -7.92
• C/C=C(/C)C(=O)OC1C(OC(C)=O)[C@@]2(CO)C(O)C[C@@]3(C)C(=CCC4[C@@]5(C)CCC(OC6OC(C(=O)O)[C@@H](O[C@@H]7OC(CO)C(O)C(O)C7O)C(O)[C@H]6O[C@@H]6OC(CO)C(O)C(O)C6O)[C@](C)(CO)C5CC[C@@]43C)C2CC1(C)C (stereo partly drawn) = 18
• CC(C)(C)NC[C@H](O)COc1cccc2c1CCC(=O)N2 = -2.13

---

# tgt: Rap guanine nucleotide exchange factor 3 (Homo sapiens) (UniProt O95398)
# Sequence (O95398 whole entry, looked up): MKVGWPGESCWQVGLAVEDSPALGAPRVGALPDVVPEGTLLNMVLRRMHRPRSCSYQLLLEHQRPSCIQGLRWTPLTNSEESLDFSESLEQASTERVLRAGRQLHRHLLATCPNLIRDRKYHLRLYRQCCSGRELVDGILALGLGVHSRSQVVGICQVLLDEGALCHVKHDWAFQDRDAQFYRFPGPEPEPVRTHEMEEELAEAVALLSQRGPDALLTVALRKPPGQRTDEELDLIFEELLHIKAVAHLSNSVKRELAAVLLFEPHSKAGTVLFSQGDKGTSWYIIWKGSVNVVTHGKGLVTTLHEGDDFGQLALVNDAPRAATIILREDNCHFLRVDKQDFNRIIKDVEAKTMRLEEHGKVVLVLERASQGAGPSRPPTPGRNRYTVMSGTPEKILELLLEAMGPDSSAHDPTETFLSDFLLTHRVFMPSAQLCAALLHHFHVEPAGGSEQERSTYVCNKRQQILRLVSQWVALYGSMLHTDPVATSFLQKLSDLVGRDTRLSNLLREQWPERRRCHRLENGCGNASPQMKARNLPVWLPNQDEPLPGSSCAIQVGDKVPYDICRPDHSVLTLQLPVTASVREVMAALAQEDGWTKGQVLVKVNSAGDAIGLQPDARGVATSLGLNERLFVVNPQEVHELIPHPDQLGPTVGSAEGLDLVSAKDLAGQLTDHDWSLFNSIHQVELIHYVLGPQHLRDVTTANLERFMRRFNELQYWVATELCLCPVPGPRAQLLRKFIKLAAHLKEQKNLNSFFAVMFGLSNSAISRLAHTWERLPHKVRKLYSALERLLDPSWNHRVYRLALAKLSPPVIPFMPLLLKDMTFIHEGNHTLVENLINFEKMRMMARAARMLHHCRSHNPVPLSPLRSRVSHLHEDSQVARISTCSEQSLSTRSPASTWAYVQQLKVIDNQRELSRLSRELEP
# protocol.details: Confirmatory qHTS for antagonist of cAMP-regulated guanine nucleotide exchange factor 3 (EPAC1) (AID 1645880); further: nearly all actives have a fitted effect of over 55% in size
# experimental.parameters: EPAC1 Rap1B-BODIPY-GDP exchange, fluorescence; series mostly up to 115 µM
# Source text: Assay Provider (PI): Xiaodong Cheng Ph.D. The University of Texas Medical Branch, […], TX MLPCN Grant: NS066510 In multi-cellular eukaryotic organisms, the effects of cAMP are transduced by two ubiquitously-expressed intracellular cAMP receptors, the classic protein kinase A/cAMP-dependent protein kinase (PKA/cAPK) and the more recently discovered exchange protein directly activated by cAMP/cAMP-regulated guanine nucleotide exchange factor (EPAC/cAMP-GEF). […]
Results filed as inconclusive are left out. Activity calls are given as the source filed them. Calls come from the whole dose curve; as a rule, active = well fitted inhibition curve with a large enough effect; inconclusive = small, poorly fitted or top-dose-only effect; inactive = no such curve, though single readings can be large or run the other way.
Outcomes: active, inactive

- COc1cc(S(=O)(=O)Nc2ccccc2C)ccc1Cl: inactive
- CCCC1CC(c2csc(N)n2)CCO1 (centres undefined): inactive
- COc1ccc(CNC(=O)[C@@H]2CC=C[C@@H]3CCN(Cc4ccccc4)C(=O)[C@@H]32)cc1: inactive
- COc1ccc(-c2nn(-c3ccccc3)cc2/C=N/n2cnnc2)cc1OC: inactive
- Fc1ccccc1N1CCN(c2ncnc3onc(-c4ccc(Cl)cc4)c23)CC1: inactive
- COc1cc(/C=C2\SC(=O)N(CC(=O)Nc3cccc(C)c3)C2=O)cc([N+](=O)[O-])c1O: active
- CCOC(=O)/C(=C\c1ccc(N2CCC(c3ccccc3)=N2)cc1)C(C)=O: inactive
- CCn1c(C)nc2cc(C(=O)N/N=C(\C)c3ccccc3O)ccc21: active
- c1ccc(CN(Cc2ccccc2)c2c3c(nc4ncnn24)CCC3)cc1: inactive
